Record form. Attribute: Sensitive %. Fill in for each entry.
- System: Listeria monocytogenes
- Assay Details: Antimicrobial susceptibility test (disc diffusion), Listeria monocytogenes
- Assay type: cell-based
- Recorded Conditions: share of Listeria monocytogenes strains classed sensitive; dash = none
One number for each entry, in %.

Need Sensitive % for each of these compounds.
1. CC[C@H]1OC(=O)[C@H](C)[C@@H](O[C@H]2C[C@@](C)(OC)[C@@H](O)[C@H](C)O2)[C@H](C)[C@@H](O[C@@H]2O[C@H](C)C[C@H](N(C)C)[C@H]2O)[C@](C)(O)C[C@@H](C)C(=O)[C@H](C)[C@@H](O)[C@]1(C)O [Erythromycin]
2. COc1cc(Cc2cnc(N)nc2N)cc(OC)c1OC [Trimethophrim]
3. NCC[C@H](O)C(=O)N[C@@H]1C[C@H](N)[C@@H](O[C@H]2O[C@H](CN)[C@@H](O)[C@H](O)[C@H]2O)[C@H](O)[C@H]1O[C@H]1O[C@H](CO)[C@@H](O)[C@H](N)[C@H]1O [Amikacin]
4. CN[C@H](CC(C)C)C(=O)N[C@H]1C(=O)N[C@@H](CC(N)=O)C(=O)N[C@H]2C(=O)N[C@H]3C(=O)N[C@H](C(=O)N[C@H](C(=O)O)c4cc(O)cc(O)c4-c4cc3ccc4O)[C@H](O)c3ccc(c(Cl)c3)Oc3cc2cc(c3O[C@@H]2O[C@H](CO)[C@@H](O)[C@H](O)[C@H]2O[C@H]2C[C@](C)(N)[C@H](O)[C@H](C)O2)Oc2ccc(cc2Cl)[C@H]1O [Vancomycin]
5. CN(C)[C@@H]1C(O)=C(C(N)=O)C(=O)[C@@]2(O)C(O)=C3C(=O)c4c(O)cccc4[C@@](C)(O)[C@H]3C[C@@H]12 [Tetracycline]

[100, 100, 100, 100, 100]

Tell me the measured Sensitive % of CO[C@H]1/C=C/O[C@@]2(C)Oc3c(C)c(O)c4c(O)c(c(/C=N/N5CCN(C)CC5)c(O)c4c3C2=O)NC(=O)/C(C)=C\C=C\[C@H](C)[C@H](O)[C@@H](C)[C@@H](O)[C@@H](C)[C@H](OC(C)=O)[C@@H]1C [Rifampicin] , please.
100
